Test system: SNB-75
Assay: NCI tumour cell line growth inhibition, 48 h
Active and inactive are the calls of the source. No stated cut-off is given here; in the data, active = GI50 up to about 1.1 µM and inactive = higher.
Form entry, call: pick from active, inactive

Dear all, I need the recorded test outcome for COc1cc2c(cc1OC)C13CC[N+]4(C)CC5=CCOC6CC(=O)N2C1C6C5CC34[O-] (stereo unspecified) , thank you. inactive

Dear all, I need the recorded test outcome for C=C1C(=O)OC2(C)CCC1CC1OC1(C)CCC=C(C)CCC2O (stereo unspecified) , thank you. inactive

Dear all, I need the recorded test outcome for CCC1(CC)C(=O)N(C(=O)c2ccc(C)cc2)N(C(=O)c2ccc(C)cc2)C1=O , thank you. inactive

Dear all, I need the recorded test outcome for O=C(NC(Cc1ccccc1)(Cc1ccc(O)cn1)C(=O)O)c1ccccc1 (stereo unspecified) , thank you. inactive

Dear all, I need the recorded test outcome for O=c1[nH]nc(-c2ccccc2)n1Nc1ccccc1 , thank you. inactive

Dear all, I need the recorded test outcome for CC(O)C(O)C(N)CC=O (stereo unspecified) , thank you. inactive

Dear all, I need the recorded test outcome for COc1ccc(/C(=N\NC(=O)C(N)=O)C(c2ccc(OC)cc2)C2(O)C(=O)Nc3c(Cl)cccc32)cc1 (stereo unspecified) , thank you. inactive

Dear all, I need the recorded test outcome for O=C1/C(=N\NC(=S)NC2CCCCC2)c2cc([N+](=O)[O-])ccc2N1CN1CCOCC1 , thank you. inactive

Dear all, I need the recorded test outcome for Cc1ccccc1C1CC(=O)CC(c2ccccc2C)C12C(=O)NC(=S)NC2=O (stereo unspecified) , thank you. inactive

Dear all, I need the recorded test outcome for NC(=O)NCCCC(NC(=O)OCCCCCn1ccc(=O)[nH]c1=O)C(=O)O (stereo unspecified) , thank you. inactive

Dear all, I need the recorded test outcome for Cc1sc2c(c1C)/C(=N\O)c1cccn1-2 , thank you. inactive

Dear all, I need the recorded test outcome for O=C1C(C2=[N+]([O-])c3ccccc3C2=O)=[N+]([O-])c2ccccc21 , thank you. inactive

Dear all, I need the recorded test outcome for COc1cc(CCNC2=CC(=O)c3cccnc3C2=O)ccc1O , thank you. active

Dear all, I need the recorded test outcome for C=CCc1ccc(Oc2cc(CC=C)c3c(c2O)O[C@@H](CO)[C@H]3c2ccc(O)c(-c3cc(CC=C)ccc3O)c2)cc1 , thank you. inactive

Dear all, I need the recorded test outcome for C/C(=C(/C)c1cc[n+](C)cc1)c1cc[n+](C)cc1 , thank you. inactive

Dear all, I need the recorded test outcome for COc1c(C)n(CCO)ccc1=O , thank you. inactive

Dear all, I need the recorded test outcome for O=C(CSc1nc2ccccc2c2ccccc12)c1ccccc1 , thank you. inactive

Dear all, I need the recorded test outcome for COc1ccc(-c2c3c(cc4cc5c(cc24)OCO5)C(=O)OC3)cc1OC , thank you. inactive

Dear all, I need the recorded test outcome for N#CCCN(c1ccc(/C=N/c2ccc(C(=O)O)cc2)cc1)S(=O)(=O)c1ccccc1 , thank you. inactive

Dear all, I need the recorded test outcome for O=S1(=O)CS(=O)(=O)OCCCO1 , thank you. inactive

Dear all, I need the recorded test outcome for CC1=CC[C@@H]2[C@@H](CC[C@@]2(C)O)C(C)(C)[C@H]1CC[C@@H]1[C@@]2(C)CCC(=O)C(C)(C)O[C@@H]2CC[C@]1(C)O , thank you. inactive

* * *

Test system: MDA-MB-231
Experiment: NCI tumour cell line growth inhibition, 48 h
Active and inactive are the calls of the source. No stated cut-off is given here; in the data, active = GI50 up to about 1.1 µM and inactive = higher.
Hi there, I'd appreciate the recorded GI50 for every entry that follows.

Complete the entry with GI50 for CC[n+]1[b-](C(C)(C)C)n(/N=C(\C)C(C)(C)C)[b-](C(C)(C)C)[n+]1CC > 100 µM (inactive)

Complete the entry with GI50 for Cc1nn(C(=O)c2ccccc2O)c2c1C(c1ccc([N+](=O)[O-])cc1)SC(=N)N2 (centres undefined) > 5.94 µM (inactive)

Complete the entry with GI50 for CC1=CC[C@@H]2[C@@H](CC[C@@]2(C)O)C(C)(C)[C@H]1CC[C@@H]1[C@@]2(C)CCC(=O)C(C)(C)O[C@@H]2CC[C@]1(C)O 45.6 µM (inactive)

Complete the entry with GI50 for O=[N+]([O-])c1ccc(C2=Nn3c(nnc3-c3ccc(Cl)cc3)SC2)o1 3.24 µM (inactive)

Complete the entry with GI50 for CC1NCCC(CC(=O)O)C1CC(=O)O (centres undefined) > 100 µM (inactive)

Complete the entry with GI50 for O=C(O)C(=O)Cc1ccc2c(c1)OCO2 > 100 µM (inactive)

Complete the entry with GI50 for CC1=NC(=Cc2ccc([N+](=O)[O-])cc2)C(=O)N1n1c(-c2ccccc2)nc2ccccc2c1=O 63.7 µM (inactive)

Complete the entry with GI50 for CCOC(=O)C1CCC(=O)N1C(=O)c1cccc(Cl)c1 (centres undefined) > 100 µM (inactive)

Complete the entry with GI50 for COC(=O)C12OC(C)(C(CC(=O)OC(C)(C)C)C1=O)C1C(=O)N(c3ccccc3)C(=O)C12 (centres undefined) > 100 µM (inactive)
